Ref: PubChem BioAssay AID1963851

tested on: 188146-221-R-J1-PDC complex spheroid viability; experiment: Anticancer human tumor 188146-221-R-J1-PDC patient-derived colon adenocarcinoma cell line growth inhibition [POLQ]; conditions: second compound 0.0316 µM; first compound 0.0316 µM; hits give low values
Let's look at some molecules and their measured viability, T/C.
Your answer is read as %, so omit the unit and give the number.

# molecule, unit, viability, T/C
measured = [
    ("COc1cc2cc(C(=O)CCC(=O)O)sc2cc1OC + COC1C(OC(N)=O)C(O)C(Oc2ccc3c(O)c(NC(=O)c4ccc(O)c(CC=C(C)C)c4)c(=O)oc3c2C)OC1(C)C", "%", 108),
    ("C#Cc1c(F)ccc2cc(O)cc(-c3ncc4c(N5CC6CCC(C5)N6)nc(OCC56CCCN5CC(F)C6)nc4c3F)c12 (stereo not given) + COC1C(OC(N)=O)C(O)C(Oc2ccc3c(O)c(NC(=O)c4ccc(O)c(CC=C(C)C)c4)c(=O)oc3c2C)OC1(C)C", "%", 105),
]

Entry CCCS(=O)(=O)Nc1ccc(F)c(C(=O)c2c[nH]c3ncc(-c4ccc(Cl)cc4)cc23)c1F + Nc1ccc(C#CCN(C(=O)Cc2ncc(C(F)(F)F)cc2C(F)(F)F)c2ccc(F)cc2)nn1 : reported viability, T/C = ?
104

// query: COc1cccc(OCCCN)c1-c1cc(Nc2cnc(C#N)cn2)n[nH]1 + COC1C(OC(N)=O)C(O)C(Oc2ccc3c(O)c(NC(=O)c4ccc(O)c(CC=C(C)C)c4)c(=O)oc3c2C)OC1(C)C
51.3

// query: CC1COCCN1c1cc(-c2ccnn2C)c2ccnc(-c3ccn[nH]3)c2n1 (stereo not given) + COC1C(OC(N)=O)C(O)C(Oc2ccc3c(O)c(NC(=O)c4ccc(O)c(CC=C(C)C)c4)c(=O)oc3c2C)OC1(C)C
81.5

----------
system: 188146-221-R-J1-PDC complex spheroid viability; assay: Anticancer human tumor 188146-221-R-J1-PDC cell line growth inhibition [POLQ]; details: second compound 0.0316 µM; first compound 0.316 µM; hits give low values;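 note: spheroids exposed to compounds for seven days; 100% = DMSO vehicle control viability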
metric_name: viability, T/C (%)
Your answer is read as %, so omit the unit and give the number.

The cases that follow already have their viability, T/C on record.
# molecule, unit, quantitative_result
measured = [
    ("CC1COCCN1c1cc(C2(S(C)(=N)=O)CC2)nc(-c2ccnc3[nH]ccc23)n1 (stereo unspecified) + Cc1cccc(N(C)C(=O)C2C(O)CCN2c2nc(C)cc(C(F)(F)F)c2C#N)c1", "%", 97.6),
    ("COc1cc2cc(C(=O)CCC(=O)O)sc2cc1OC + Nc1ccc(C#CCN(C(=O)Cc2ncc(C(F)(F)F)cc2C(F)(F)F)c2ccc(F)cc2)nn1", "%", 96.4),
    ("COc1cccc(OCCCN)c1-c1cc(Nc2cnc(C#N)cn2)n[nH]1 + COC1C(OC(N)=O)C(O)C(Oc2ccc3c(O)c(NC(=O)c4ccc(O)c(CC=C(C)C)c4)c(=O)oc3c2C)OC1(C)C", "%", 13),
    ("C=CCn1c(=O)c2cnc(Nc3ccc(N4CCN(C)CC4)cc3)nc2n1-c1cccc(C(C)(C)O)n1 + Nc1ccc(C#CCN(C(=O)Cc2ncc(C(F)(F)F)cc2C(F)(F)F)c2ccc(F)cc2)nn1", "%", 102),
    ("CCCS(=O)(=O)Nc1ccc(F)c(C(=O)c2c[nH]c3ncc(-c4ccc(Cl)cc4)cc23)c1F + Nc1ccc(C#CCN(C(=O)Cc2ncc(C(F)(F)F)cc2C(F)(F)F)c2ccc(F)cc2)nn1", "%", 101),
]

Entry COc1cccc2c1C(=O)c1c(O)c3c(c(O)c1C2=O)CC(O)(C(=O)CO)CC3OC1CC(N)C(O)C(C)O1 (stereo unspecified) + Cc1cccc(N(C)C(=O)C2C(O)CCN2c2nc(C)cc(C(F)(F)F)c2C#N)c1 : reported viability, T/C = ?
31.3

// query: COc1cc(C2c3cc4c(cc3C(OC3OC5COC(C)OC5C(O)C3O)C3COC(=O)C23)OCO4)cc(OC)c1O (stereo unspecified) + Nc1ccc(C#CCN(C(=O)Cc2ncc(C(F)(F)F)cc2C(F)(F)F)c2ccc(F)cc2)nn1
61.4

// query: Nc1ccn(C2OC(CO)C(O)C2(F)F)c(=O)n1 (stereo unspecified) + Cc1cccc(N(C)C(=O)C2C(O)CCN2c2nc(C)cc(C(F)(F)F)c2C#N)c1
14.7

// query: O=C(c1cc(Cc2n[nH]c(=O)c3ccccc23)ccc1F)N1CCN(C(=O)C2CC2)CC1 + Nc1ccc(C#CCN(C(=O)Cc2ncc(C(F)(F)F)cc2C(F)(F)F)c2ccc(F)cc2)nn1
104

// query: CCCS(=O)(=O)Nc1ccc(F)c(C(=O)c2c[nH]c3ncc(-c4ccc(Cl)cc4)cc23)c1F + COC1C(OC(N)=O)C(O)C(Oc2ccc3c(O)c(NC(=O)c4ccc(O)c(CC=C(C)C)c4)c(=O)oc3c2C)OC1(C)C
77.3

// query: CCc1cc2c(N3CCc4c(cc(Cn5ccnc5)cc4-c4cn(C)nc4C(F)(F)F)C3=O)ccnc2c(OC)n1 + Cc1cccc(N(C)C(=O)C2C(O)CCN2c2nc(C)cc(C(F)(F)F)c2C#N)c1
93.5

----------
Let's look at some compounds and their measured viability, T/C.
tested on: 188146-221-R-J1-PDC complex spheroid viability; assay: Anticancer human tumor 188146-221-R-J1-PDC cell line growth inhibition [POLQ]; conditions: second compound 0.0316 µM; first compound 0.316 µM; hits give low values;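 note: spheroids exposed to compounds for seven days; 100% = DMSO vehicle control viability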
Your answer is read as %, so omit the unit and give the number.

# compound, unit, viability, T/C
data = [
    ("CC1COCCN1c1cc(C2(S(C)(=N)=O)CC2)nc(-c2ccnc3[nH]ccc23)n1 (stereo not given) + COC1C(OC(N)=O)C(O)C(Oc2ccc3c(O)c(NC(=O)c4ccc(O)c(CC=C(C)C)c4)c(=O)oc3c2C)OC1(C)C", "%", 98.7),
    ("COc1ccc([C@@H](O)c2cc(-c3ncnc4cc(N5CCOCC5)ccc34)c(F)cc2Cl)nn1 + Nc1ccc(C#CCN(C(=O)Cc2ncc(C(F)(F)F)cc2C(F)(F)F)c2ccc(F)cc2)nn1", "%", 96.6),
    ("C#Cc1c(F)ccc2cc(O)cc(-c3ncc4c(N5CC6CCC(C5)N6)nc(OCC56CCCN5CC(F)C6)nc4c3F)c12 (stereo not given) + COC1C(OC(N)=O)C(O)C(Oc2ccc3c(O)c(NC(=O)c4ccc(O)c(CC=C(C)C)c4)c(=O)oc3c2C)OC1(C)C", "%", 100),
    ("O=c1[nH]cc(F)c(=O)[nH]1 + COC1C(OC(N)=O)C(O)C(Oc2ccc3c(O)c(NC(=O)c4ccc(O)c(CC=C(C)C)c4)c(=O)oc3c2C)OC1(C)C", "%", 72.7),
    ("O=C(Nc1ccc(O)c(NS(=O)(=O)c2ccc(F)cc2)c1)c1ccc(-c2ccccc2)cc1 + Cc1cccc(N(C)C(=O)C2C(O)CCN2c2nc(C)cc(C(F)(F)F)c2C#N)c1", "%", 109),
    ("O=C(c1cc(Cc2n[nH]c(=O)c3ccccc23)ccc1F)N1CCN(C(=O)C2CC2)CC1 + COC1C(OC(N)=O)C(O)C(Oc2ccc3c(O)c(NC(=O)c4ccc(O)c(CC=C(C)C)c4)c(=O)oc3c2C)OC1(C)C", "%", 100),
    ("C=CCn1c(=O)c2cnc(Nc3ccc(N4CCN(C)CC4)cc3)nc2n1-c1cccc(C(C)(C)O)n1 + Cc1cccc(N(C)C(=O)C2C(O)CCN2c2nc(C)cc(C(F)(F)F)c2C#N)c1", "%", 103),
    ("COc1cc(C2c3cc4c(cc3C(OC3OC5COC(C)OC5C(O)C3O)C3COC(=O)C23)OCO4)cc(OC)c1O (stereo not given) + COC1C(OC(N)=O)C(O)C(Oc2ccc3c(O)c(NC(=O)c4ccc(O)c(CC=C(C)C)c4)c(=O)oc3c2C)OC1(C)C", "%", 78.1),
    ("CCCS(=O)(=O)Nc1ccc(F)c(C(=O)c2c[nH]c3ncc(-c4ccc(Cl)cc4)cc23)c1F + Cc1cccc(N(C)C(=O)C2C(O)CCN2c2nc(C)cc(C(F)(F)F)c2C#N)c1", "%", 102),
    ("CCc1cc2c(N3CCc4c(cc(Cn5ccnc5)cc4-c4cn(C)nc4C(F)(F)F)C3=O)ccnc2c(OC)n1 + Nc1ccc(C#CCN(C(=O)Cc2ncc(C(F)(F)F)cc2C(F)(F)F)c2ccc(F)cc2)nn1", "%", 90.8),
]

Now consider the entry below.
Notebook entry, 188146-221-R-J1-PDC complex spheroid viability assay: viability, T/C of CC(C)n1c(=O)n(C)c2cnc3cc(F)c(-c4ccc(OCCCN5CCCCC5)nc4)cc3c21 + Cc1cccc(N(C)C(=O)C2C(O)CCN2c2nc(C)cc(C(F)(F)F)c2C#N)c1 = ?
100
